- Tested on: SK-MEL-28 melanoma
- method notes: NCI tumour cell line growth inhibition, 48 h
Recorded GI50 for the following molecules

molecule | GI50
CC(C)[C@]12O[C@H]1[C@@H]1O[C@]13[C@]1(O[C@H]1C[C@H]1c4c(C(=O)c5ccccc5)oc(OC(=O)c5ccccc5)c4CC[C@@]13C)[C@@H]2O | 0.0184 µM

Problem: Value lookup for GI50; key = Cc1nc2cc(O)c(O)cc2cc1Oc1ccc(NC(=O)Nc2ccc(Cl)c(Cl)c2)cc1
Result: 9 µM

Problem: Recorded GI50 of CCCNc1nc(-c2ccc(OC)cc2)nc2ccccc12 , please.
Result: 18.6 µM

Ref: PubChem BioAssay (NCI)
